Biological target: T1, human DLL4 expressed on cells (CHO-hDLL4; HEK293-hDLL4) (human, UniProt Q9NR61 27-685)
T1 construct: full length human DLL4 overexpressed on CHO cells (FMAT, FACS) or HEK293 cells (reporter assay)
Test: competition FMAT CHO-hDLL4; summary table
Known IC50 of a selection of binders
READOUT: IC50 (nM)

BINDER | READOUT | MEASURED NUMBER
DLLBII129B05 (VHH, not shown: small tags and cut ends) VHH: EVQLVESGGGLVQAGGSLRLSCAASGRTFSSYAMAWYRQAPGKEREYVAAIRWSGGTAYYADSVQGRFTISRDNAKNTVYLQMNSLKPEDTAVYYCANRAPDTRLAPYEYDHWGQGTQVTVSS | IC50 | 7.4
DLLBII115A05 (VHH, not shown: small tags and cut ends, parent VHH; also called 115A05 (wt); 115A5) VHH: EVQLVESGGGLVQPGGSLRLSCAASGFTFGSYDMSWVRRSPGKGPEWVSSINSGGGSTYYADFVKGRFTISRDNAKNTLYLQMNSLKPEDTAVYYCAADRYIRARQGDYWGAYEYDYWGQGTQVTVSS | IC50 | 107
